# Experiment description: Human HepG2 cell viability assay in 384 well format
# Assay type: toxicity, cell-based
# Parameters: dose 125 nL, time 70.5 hour; concentration not given beside the values
# Study conditions: HepG2 cells, read-out: Inhibition
cytotoxicity at 70.5 h listing for selected compounds.
State the answer as a number, implicitly in %.

Take a look at these entries with their results.
[[record]]
compound = "Cc1ncnc(NCCCN2CCCCC2CO)c1C (stereo unspecified)"
test_readout = "cytotoxicity at 70.5 h"
measured_number = -1.1

[[record]]
compound = "CCNC(c1ccc(Br)cc1)c1cccnc1 (stereo unspecified)"
test_readout = "cytotoxicity at 70.5 h"
measured_number = 1.53

[[record]]
compound = "O=C(C1CC1)N1CCCC(c2nc(O)cc(-c3ccncc3)n2)C1 (stereo unspecified)"
test_readout = "cytotoxicity at 70.5 h"
measured_number = -0.584

[[record]]
compound = "O=C(CN1CCN(C(=O)c2ccccc2)CC1)Nc1ccc(Br)cn1"
test_readout = "cytotoxicity at 70.5 h"
measured_number = -8.87

[[record]]
compound = "Cc1cc(CN(CCO)c2ccc(Br)cc2)on1"
test_readout = "cytotoxicity at 70.5 h"
measured_number = -0.419


Then this compound:
Query: Look at this compound and give its reported cytotoxicity at 70.5 h. CNS(=O)(=O)c1cccc(C(C)NCc2ccc(C)o2)c1 (stereo unspecified)
Reply: -2.97
